target: I-A^d (Mus musculus, UniProt P01921+P04228); assay: biochemical; type: binding, BALB/c mouse; conditions: Binding Assay IC50, I-A^d (envelope 15mers)
Sequence (P04228 24-256): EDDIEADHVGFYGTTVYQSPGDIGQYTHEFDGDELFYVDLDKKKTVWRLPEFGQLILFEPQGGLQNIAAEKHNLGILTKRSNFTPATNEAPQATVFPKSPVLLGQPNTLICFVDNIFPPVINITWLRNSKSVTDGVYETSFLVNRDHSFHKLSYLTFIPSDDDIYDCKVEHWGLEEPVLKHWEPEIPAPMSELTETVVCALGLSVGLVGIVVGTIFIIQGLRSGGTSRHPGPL
Sequence (P01921 28-265): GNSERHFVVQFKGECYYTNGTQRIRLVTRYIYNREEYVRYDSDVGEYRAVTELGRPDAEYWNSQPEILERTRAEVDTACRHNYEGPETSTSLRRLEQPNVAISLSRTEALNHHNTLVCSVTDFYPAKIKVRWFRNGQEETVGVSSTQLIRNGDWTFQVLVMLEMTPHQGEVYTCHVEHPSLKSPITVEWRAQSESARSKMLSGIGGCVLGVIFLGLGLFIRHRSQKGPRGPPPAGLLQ
pIC50: −log10 of the molar value.
valueType: pIC50

Summary for this molecule, CC[C@H](C)[C@H](NC(=O)[C@H](CCCCN)NC(=O)[C@@H](NC(=O)[C@H](CCC(N)=O)NC(=O)[C@H](CC(=O)O)NC(=O)[C@@H](NC(=O)[C@@H](N)CCC(=O)O)C(C)C)[C@@H](C)O)C(=O)N[C@@H](CCC(N)=O)C(=O)N[C@@H](Cc1ccc(O)cc1)C(=O)N[C@H](C(=O)N[C@H](C(=O)N[C@@H](CCCNC(=N)N)C(=O)N[C@@H](C)C(=O)N[C@@H](CCC(N)=O)C(=O)N[C@@H](CC(C)C)C(=O)O)[C@@H](C)CC)C(C)C [E129–143] : pIC50 is > 6.00

Attribution: paper PMC2615555
